Tested on: Plasmodium falciparum
Test: GSK_TCMDC: Inhibition of Plasmodium falciparum 3D7 in whole red blood cells, using parasite LDH activity as an index of growth. Test compounds present at 2uM
Format: functional
measurementName: Inhibition (%)
Give bare numbers, in %.

Check out these entries, answers already filled in.
compound | Inhibition (%)
O=C(O)C(F)(F)F.Oc1ccc2[nH]c(-c3cccc(F)c3)nc2c1CNCc1ccccc1 | 92
COc1ccccc1N1CCN(C(C(=O)NCc2ccc3c(c2)OCO3)c2ccc3c(c2)OCCCO3)CC1 (centres undefined) | 88
COc1ccccc1CN1CCC(NC(=O)c2ccc(-c3ccc(N(C)C)cc3)s2)CC1.O=C(O)C(F)(F)F | 90

Then this compound:
Return reported Inhibition; argument: CC(C)(CNCc1ccc(C(F)(F)F)cc1)c1nc(-c2ccc(Cl)c(O)c2)c(-c2ccncc2)[nH]1.Cl 100

---

Tested on: HepG2
Assay: GSK_TCMDC: Percent inhibition of human HepG2 cell line. Test compounds present at 10uM.
Assay type: functional
I'd appreciate it if you could supply Inhibition values for the items below.
One number for each entry, in %.

Use the examples below as a reference point.
compound | experimentalSystem | Inhibition, %
Cl.OC(c1ccccc1)C1CN(CCC2CC3CCC2C3)CCC1(O)c1ccccc1 (stereo not given) | HepG2 | 0
Nc1nc(N)c2nc(C3CC=CCC3)c(N)nc2n1 (stereo not given) | HepG2 | 67
COc1cccc(CNC(=O)c2cccc(-c3ccc(CN4CCC(N5CCCC5)CC4)cc3)n2)c1.O=C(O)C(F)(F)F | HepG2 | 16
CCN1CCC(NCc2ccc(-c3ccc(Cl)cc3)cc2)CC1 | HepG2 | 25
Cc1cc(C)cc(OCC(O)CN(Cc2cc(Cl)cc(Cl)c2)C(=O)Nc2ccccc2Cl)c1 (stereo not given) | HepG2 | 0

Answer for every listed entry: what is its Inhibition? The entries follow.
1. CCc1ccc(S(=O)(=O)Nc2ccc(CCN(C)C3CCN(C)CC3)cc2)cc1
2. COc1cc(NC(=O)Nc2ccc([N+](=O)[O-])cc2OC)c(OC)cc1Cl
3. Cc1cc(NC(=O)NCCN2CCC(NS(=O)(=O)c3ccccc3Cl)C2)c2ccccc2n1 (stereo not given)
4. N=C(N)NC(=O)Nc1ccc(Cl)c(Cl)c1
5. CN1CCN(c2ccc(Nc3nc(N)c4ccn(C5CCC5)c4n3)cc2)CC1.O=C(O)C(F)(F)F

25
38
1
29
0

---

What Inhibition was measured for each of the following?
Test system: HepG2
Assay: GSK_TCMDC: Percent inhibition of human HepG2 cell line. Test compounds present at 10uM.
Type: functional
Answer by giving the amount and then stating its unit.

compound | Inhibition
CS(=O)(=O)O.Nc1nc(NCC2CCC(CNS(=O)(=O)c3cccc4ccccc34)CC2)nc2ccccc12 (stereo not drawn) | 9%
COc1ccc(-c2cccc(NC(=O)c3cccc(Cl)c3)c2)cc1CN1CCN(C)CC1.O=C(O)C(F)(F)F | 27%
O=C(/C=C/c1ccc(Cl)c(Cl)c1)NCCCCCN1CCC(NC(=O)Nc2cccc(Cl)c2Cl)CC1 | 99%
CCOc1cc2c(cc1OCC)C(c1ccc(O)c(Cl)c1)NCC2.Cl (stereo not drawn) | 6%

Dear reader, for each entry below, please note its Inhibition.
1. O=C(CCc1c[nH]cn1)Nc1cccc(-c2ccc(-c3nc4cc(F)ccc4[nH]3)s2)c1
2. O=C(/C=C/c1ccc(Cl)c(Cl)c1)NC1CCC(CN2CCC(c3cc4ccccc4[nH]3)CC2)CC1 (stereo not drawn)
3. C[C@@H](N/C(=N\c1ccc(-c2ccccc2)cc1)Nc1ccc(C#N)cc1O)c1ccc(Br)cc1
4. Cn1cccc1C(=O)C(=O)Nc1cccc(-c2ccc(-c3nc4cc(C(F)(F)F)ccc4[nH]3)cc2)c1
5. Cl.N#Cc1ccc(C2CCN(CC[C@H](N)Cc3ccc(Cl)s3)CC2)cc1
6. CCCN(Cc1nnc(-c2ccco2)o1)C(=O)C1CCN(c2ncc(C(F)(F)F)cc2Cl)CC1
7. Cc1nc2ccccc2c(O)c1-c1ccc(Cl)cc1

1. 17%
2. 19%
3. 9%
4. 62%
5. 31%
6. 19%
7. 0%

---

Tested on: HepG2
Assay: GSK_TCMDC: Percent inhibition of human HepG2 cell line. Test compounds present at 10uM.
Type: functional
measurementName: Inhibition (%)
One number for each entry, in %.

Some solved entries appear below for comparison.
molecule | experimentalSystem | unitString | Inhibition
O=C(NCC1CCN(Cc2ccc(F)cc2)C1)c1cc(-c2cccc(C(F)(F)F)c2)cs1.O=C(O)C(F)(F)F (stereo not given) | HepG2 | % | 38
CN1CCCN(Cc2cccc(-c3cccc(NC(=O)c4ccc(Cl)cc4)c3)c2)CC1.O=C(O)C(F)(F)F | HepG2 | % | 35

Give Inhibition for all molecules that follow.
1. O=C(Nc1cccc(CN2CCCN(Cc3ccc(F)cc3)CC2)c1)c1ccc(Cl)c(Cl)c1.O=C(O)C(F)(F)F
2. O=C(O)C(F)(F)F.Oc1ccc(CCNc2nc(NCc3ccc4cc(Cl)ccc4c3)nc(N3CCNCC3)n2)cc1
3. Cl.N#Cc1ccc2c(c1)CCN(CCC1CCC(NC(=O)/C=C/c3c[nH]c4c(Br)cccc34)CC1)CC2 (stereo not given)
4. CCCCOc1cc(OC)c2ccccc2c1CCNCCCCNCCc1c(OCCCC)cc(OC)c2ccccc12.CS(=O)(=O)O
5. O=C(Nc1ccc(OC2CCN(Cc3ccccc3)CC2)c(Cl)c1)c1ccc(F)cc1.O=C(O)C(F)(F)F

1. 27
2. 14
3. 32
4. 100
5. 30

---

Tested on: HepG2
Assay: GSK_TCMDC: Percent inhibition of human HepG2 cell line. Test compounds present at 10uM.
Assay type: functional
Task for the reader: assign each of the following molecules its reported Inhibition.
One number for each entry, in %.

Below: 4 molecules and their reported Inhibition.
molecule | Inhibition, %
c1ccc2[nH]c(CN(Cc3nc4ccccc4[nH]3)Cc3nc4ccccc4[nH]3)nc2c1 | 39
O=C(Nc1cc(Cl)ccc1O)c1cc(-c2ccccc2O)no1 | 0
Cn1nc2ccc3ccccc3c2nc1=N.I | 100
COc1cc(C(=O)NC2CC(C)(C)NC(C)(C)C2)ccc1-c1cc2cc(Cl)c(Cl)cc2[nH]1.O=C(O)C(F)(F)F | 41

// each listed molecule needs a value for Inhibition
1. CN1CCC(NCc2cccc(-c3ccc(S(=O)(=O)NCCN4CCCC4)s3)c2)CC1.O=C(O)C(F)(F)F
2. CC[C@H](C)CNC(=O)c1cncc(-c2ccc(CNC3CCCC3)cc2)c1.O=C(O)C(F)(F)F
3. COc1ccc([N+](=O)[O-])cc1N(Cc1ccccc1-c1ccccc1)S(=O)(=O)c1ccc(C(F)(F)F)cc1
4. COc1ccccc1NC(=O)NC1CCN(CCCCCNC(=O)/C=C/c2ccc(Cl)c(Cl)c2)CC1
5. COCCNC(=O)c1ccc(OC2CCN(CC(C)=Cc3ccccc3)CC2)c(Cl)c1
6. CCCCCC(=O)NCC(NCCCNc1cc(=O)c2ccccc2[nH]1)c1cc(Br)cc(Br)c1 (stereo not drawn)

[10, 0, 3, 4, 18, 0]

# return Inhibition for each item in the list
1. COc1ccccc1N1CCN(C(C(=O)NCc2ccc(C)cc2)c2ccc(C)cc2)CC1 (stereo not drawn)
2. CCOc1c(Cl)cc(Cl)cc1CNCCCNc1nc2ccccc2[nH]1.Cl

1: 12; 2: 18

Please look at the items below and tell me Inhibition for each one, in order.
1. CCCCN1CCN(c2cc(NS(=O)(=O)c3cccc(C(=O)Nc4ccc(C(F)(F)F)cc4)c3)ccc2OC)CC1.O=C(O)C(F)(F)F
2. O=C(NC1CCCCC1)C1CCCN(C(=O)c2ccc(O)c(-c3ccc(Cl)c(Cl)c3)c2)C1 (stereo not drawn)
3. Nc1ccc2nc(C=Cc3ccc(Cl)cc3)[nH]c2c1
4. O=C1COc2ccc(CNC3CCC(O)(CCc4ccnc5cc6c(cc45)OCCO6)CC3)nc2N1 (stereo not drawn)
5. CC(C)CN1CCC(COc2ccc3ncn(-c4cc(O[C@H](C)c5ccccc5C(F)(F)F)c(C(N)=O)s4)c3c2)CC1

[6, 22, 19, 0, 46]

# return Inhibition for each item in the list
1. Cc1cc(Nc2ncc(C#N)c(Nc3ccccc3C(N)=O)n2)ccc1N1CCN(C)CC1.Cl
2. Cl.c1ccc(-c2nc3ccccc3[nH]2)c(Nc2ccnc3cc(-c4nccs4)ccc23)c1
3. CC(C)(C)OC(=O)n1cc(C2CCN(CCCC34CCCc5cccc(c53)NC4=O)CC2)c2ccncc21 (stereo not drawn)

1. 99
2. 0
3. 20

---

System: Plasmodium falciparum
Assay: GSK_TCMDC: Inhibition of Plasmodium falciparum 3D7 in whole red blood cells, using parasite LDH activity as an index of growth. Test compounds present at 2uM
Type: functional
Please provide measured Inhibition for the entries that follow.
One number for each entry, in %.

compound | testResult
CN1CCC(OC(=O)c2cc3cc(-c4ccccc4)ccc3n2S(=O)(=O)c2ccccc2)CC1.Cl | 88
CCCCCC(C)C(C)c1cc(O)c2c(c1)OC(C)(C)CC2(O)c1ccccn1 (centres undefined) | 98
CC(C)(C)c1ccc(-c2cc3c(ccc4nc(N)nc(N)c43)[nH]2)cc1 | 100
O=C(O)C(F)(F)F.O=C(c1cccs1)N(Cc1cccc(-c2ccc(CNCCc3ccccc3)cc2)c1)C1CCN(Cc2ccccc2)CC1 | 95

Answer for every listed entry: what is its Inhibition? The entries follow.
1. O=C(/C=C/c1ccc(Cl)c(Cl)c1)NC1CCC(CN2CCC(c3cc4ccccc4[nH]3)CC2)CC1 (centres undefined)
2. CC(C)(CNC(=O)[C@H]1CCCCN1)c1nc(-c2ccc(Cl)c(O)c2)c(-c2ccncc2)[nH]1.Cl

96
98

For each of the compounds below, note its Inhibition.
1. Oc1ccc2ncnc(Nc3ccc(OCc4cccc(F)c4)c(Cl)c3)c2c1
2. COc1ccc(CN2CCC(CNCCc3ccccc3Cl)CC2)cc1.O=C(O)C(F)(F)F

1. 100
2. 87

Where these numbers come from: ChEMBL document CHEMBL1157539
